- Test system: 1535 (donor line of iPSC-derived cardiomyocytes)
- experimentNotes: POD (EC05) for decrease in beat frequency (negative chronotrope) vs vehicle; higher = less potent (higher point of departure)
- testContext: exposure time: 90 min
assayMetric: POD vs vehicle

compound="O=C(O)C(F)(F)C(F)(F)C(F)(F)C(F)(F)C(F)(F)C(F)(F)F [Perfluoroheptanoic_acid]" valuemeasured="> 100 µM"
compound="O=C(O)C(F)(F)C(F)(F)C(F)(F)OC(F)(F)F [Perfluoro(4-methoxybutanoic)_acid]" valuemeasured="> 100 µM"
compound="O=S(=O)(O)CCC(F)(F)C(F)(F)C(F)(F)C(F)(F)C(F)(F)C(F)(F)C(F)(F)C(F)(F)F [8:2 Fluorotelomer sulfonic acid]" valuemeasured="60.9 µM"
compound="O=C(O)C(F)(F)C(F)(F)C(F)(F)C(F)(F)C(F)(F)C(F)(F)C(F)(F)C(F)(F)C(F)(F)F [Perfluorodecanoic_acid]" valuemeasured="66.5 µM"
compound="O=C(O)C(F)(F)C(F)(F)OC(F)(F)F [Perfluoro-3-methoxypropanoic_acid]" valuemeasured="> 100 µM"
compound="O=S(=O)([O-])C(F)(F)C(F)(F)C(F)(F)C(F)(F)F.[K+] [Potassium_perfluorobutanesulfonate]" valuemeasured="> 100 µM"
compound="O=C(O)C(F)(F)C(F)(F)C(F)F [2,2,3,3,4,4-Hexafluorobutanoic_acid]" valuemeasured="> 100 µM"

###

- Test system: 1518 (donor line of iPSC-derived cardiomyocytes)
- experimentNotes: POD (EC05) for increase in Ca2+ transient decay-to-rise ratio (QT prolongation) vs vehicle; higher = less potent (higher point of departure)
- testContext: exposure time: 90 min
Listed next: entries and their corresponding POD vs vehicle.
assayMetric: POD vs vehicle

compound=O=C(O)C(F)(F)C(F)(F)C(F)(F)C(F)(F)C(F)(F)C(F)(F)C(F)(F)C(F)(F)Cl assaymetric="POD vs vehicle" valuemeasured="> 100 µM"
compound=OCCC(F)(F)C(F)(F)C(F)(F)C(F)(F)C(F)(F)C(F)(F)F assaymetric="POD vs vehicle" valuemeasured="> 100 µM"
compound=O=S(=O)(O)CCC(F)(F)C(F)(F)C(F)(F)C(F)(F)F assaymetric="POD vs vehicle" valuemeasured="> 100 µM"
compound="NC(=O)C(F)(F)C(F)(F)C(F)(F)C(F)(F)F [Nonafluoropentanamide]" assaymetric="POD vs vehicle" valuemeasured="0.612 µM"

###

- Tested on: 1309 (donor line of iPSC-derived cardiomyocytes)
- experimentNotes: POD (EC95) for loss of peak frequency (asystole) vs vehicle; higher = less potent (higher point of departure)
- testContext: exposure time: 90 min
assayMetric: POD vs vehicle

compound="O=C(O)C(F)(F)C(F)(F)C(F)(F)C(F)(F)C(F)(F)C(F)(F)C(F)(F)F [Perfluorooctanoic_acid]" valuemeasured="> 100 µM"
compound="O=S(=O)(O)CCC(F)(F)C(F)(F)C(F)(F)C(F)(F)C(F)(F)C(F)(F)F [6:2 Fluorotelomer sulfonic acid]" valuemeasured="> 100 µM"
compound="O=P(O)(O)CCC(F)(F)C(F)(F)C(F)(F)C(F)(F)C(F)(F)C(F)(F)C(F)(F)C(F)(F)F [((Perfluorooctyl)ethyl)phosphonic_acid]" valuemeasured="> 100 µM"
compound="O=C(O)CCC(F)(F)C(F)(F)C(F)(F)C(F)(F)C(F)(F)C(F)(F)C(F)(F)F [3-Perfluoroheptylpropanoic_acid]" valuemeasured="> 100 µM"
compound="O=C(O)C(F)(F)C(F)(F)C(F)(F)OC(F)(C(F)(F)F)C(F)(F)F [Perfluoro-4-isopropoxybutanoic_acid]" valuemeasured="> 100 µM"
compound="O=C(O)C(F)(F)C(F)(F)C(F)F [2,2,3,3,4,4-Hexafluorobutanoic_acid]" valuemeasured="> 100 µM"
compound="OCCC(F)(F)C(F)(F)C(F)(F)C(F)(F)C(F)(F)C(F)(F)F [6:2 Fluorotelomer alcohol]" valuemeasured="> 100 µM"
compound="O=C(CC(=O)C(F)(F)C(F)(F)F)C(F)(F)F [3H,3H-Perfluoro-2,4-hexanedione]" valuemeasured="> 100 µM"
compound="O=C(O)C(F)(F)C(F)(F)C(F)(F)F [Perfluorobutanoic_acid]" valuemeasured="> 100 µM"
compound="O=C(O)CCC(F)(F)C(F)(F)C(F)(F)F [3:3 Fluorotelomer carboxylic acid]" valuemeasured="> 100 µM"
compound="OCC(F)(F)C(F)(F)C(F)(F)F [Heptafluorobutanol]" valuemeasured="> 100 µM"
compound="O=S(=O)(O)C(F)(F)C(F)(F)C(F)(F)C(F)(F)F [Perfluorobutanesulfonic_acid]" valuemeasured="> 100 µM"
compound="O=C(O)C(F)(F)C(F)(F)C(F)(F)C(F)(F)C(F)(F)C(F)(F)C(F)(F)C(F)(F)F [Perfluorononanoic_acid]" valuemeasured="> 100 µM"
compound="O=C(O)C(F)(F)C(F)(F)C(F)(F)C(F)(F)C(F)(F)C(F)(F)C(F)(F)C(F)(F)C(F)(F)F [Perfluorodecanoic_acid]" valuemeasured="> 100 µM"
compound="O=S(=O)([O-])C(F)(F)C(F)(F)C(F)(F)C(F)(F)F.[K+] [Potassium_perfluorobutanesulfonate]" valuemeasured="> 100 µM"

###

- Tested on: 11235 (donor line of iPSC-derived cardiomyocytes)
- experimentNotes: POD (EC95) for loss of peak frequency (asystole) vs vehicle; higher = less potent (higher point of departure)
- testContext: exposure time: 90 min
assayMetric: POD vs vehicle

compound=OCC(F)(F)C(F)(F)C(F)(F)C(F)(F)C(F)(F)C(F)(F)F valuemeasured="70.2 µM"
compound=O=C(O)C(F)(F)C(F)(F)C(F)(F)C(F)(F)C(F)(F)C(F)(F)C(F)(F)C(F)(F)F valuemeasured="31.5 µM"
compound=O=C(O)CCC(F)(F)C(F)(F)C(F)(F)C(F)(F)C(F)(F)C(F)(F)C(F)(F)F valuemeasured="84.8 µM"
compound=O=C(O)CCC(F)(F)C(F)(F)C(F)(F)C(F)(F)C(F)(F)F valuemeasured="59.9 µM"
compound=NC(O)(C(F)(F)F)C(F)(F)F valuemeasured="72.8 µM"
compound=O=S(=O)(O)CCC(F)(F)C(F)(F)C(F)(F)C(F)(F)C(F)(F)C(F)(F)C(F)(F)C(F)(F)F valuemeasured="> 100 µM"
compound=N=C(N)C(F)(F)C(F)(F)C(F)(F)C(F)(F)C(F)(F)C(F)(F)C(F)(F)F valuemeasured="> 100 µM"
compound=OCCC(F)(F)C(F)(F)C(F)(F)C(F)(F)F valuemeasured="> 100 µM"
compound="CC(O)C(F)(F)C(F)(F)F (stereo unspecified)" valuemeasured="> 100 µM"
compound=O=C(O)C(F)(F)C(F)(F)C(F)(F)C(F)(F)C(F)(F)F valuemeasured="> 100 µM"
compound=O=S(=O)(O)C(F)(F)C(F)(F)C(F)(F)C(F)(F)F valuemeasured="> 100 µM"
compound=O=C(O)C(F)(F)OC(F)(F)C(F)(F)OC(F)(F)C(=O)O valuemeasured="> 100 µM"
compound=O=C(O)C(F)(F)C(F)(F)C(F)(F)C(F)(F)C(F)(F)C(F)(F)C(F)(F)F valuemeasured="92.2 µM"
compound=O=C(O)C(F)(F)OC(F)(F)C(F)(F)OC(F)(F)F valuemeasured="> 100 µM"
compound=NC(=O)C(F)(F)C(F)(F)C(F)(F)C(F)F valuemeasured="> 100 µM"
compound=O=S(=O)(O)CCC(F)(F)C(F)(F)C(F)(F)C(F)(F)F valuemeasured="> 100 µM"

###

- Tested on: 1392 (donor line of iPSC-derived cardiomyocytes)
- experimentNotes: POD (EC05) for decrease in beat frequency (negative chronotrope) vs vehicle; higher = less potent (higher point of departure)
- testContext: exposure time: 90 min
Each entry below lists one item and its recorded POD vs vehicle value.
assayMetric: POD vs vehicle

molecule="O=S(=O)(OCC(F)(F)F)C(F)(F)C(F)(F)C(F)(F)C(F)(F)F [2,2,2-Trifluoroethyl_perfluorobutanesulfonate]" systemundertest=1392 valuemeasured="> 100 µM"
molecule="O=C(O)C(F)(F)OC(F)(F)C(F)(F)OC(F)(F)C(F)(F)OC(F)(F)C(F)(F)C(F)(F)C(F)(F)F [Perfluoro-3,6,9-trioxatridecanoic_acid]" systemundertest=1392 valuemeasured="> 100 µM"
molecule="NC(=O)C(F)(F)C(F)(F)C(F)(F)C(F)(F)C(F)(F)C(F)(F)C(F)(F)F [Perfluorooctanamide]" systemundertest=1392 valuemeasured="> 100 µM"
molecule="OCC(F)(F)C(F)(F)C(F)(F)C(F)F [1H,1H,5H-Perfluoropentanol]" systemundertest=1392 valuemeasured="> 100 µM"
molecule="O=C(O)C(F)(F)C(F)(F)C(F)(F)C(F)(F)C(F)(F)C(F)(F)C(F)(F)C(F)(F)F [Perfluorononanoic_acid]" systemundertest=1392 valuemeasured="> 100 µM"
molecule="O=C(O)C(F)(F)C(F)(F)C(F)(F)C(F)(F)C(F)(F)C(F)(F)C(F)(F)C(F)(F)C(F)(F)F [Perfluorodecanoic_acid]" systemundertest=1392 valuemeasured="27.5 µM"
molecule="NS(=O)(=O)C(F)(F)C(F)(F)C(F)(F)C(F)(F)C(F)(F)C(F)(F)F [Perfluorohexanesulfonamide]" systemundertest=1392 valuemeasured="91.8 µM"
molecule="O=C(O)CCC(F)(F)C(F)(F)C(F)(F)C(F)(F)C(F)(F)C(F)(F)C(F)(F)F [3-Perfluoroheptylpropanoic_acid]" systemundertest=1392 valuemeasured="> 100 µM"
molecule="O=C(O)C(F)(F)OC(F)(F)C(F)(F)OC(F)(F)C(=O)O [Perfluoro-3,6-dioxaoctane-1,8-dioic_acid]" systemundertest=1392 valuemeasured="> 100 µM"
molecule="O=C(O)C(F)(F)C(F)(F)C(F)(F)OC(F)(C(F)(F)F)C(F)(F)F [Perfluoro-4-isopropoxybutanoic_acid]" systemundertest=1392 valuemeasured="> 100 µM"
molecule="O=C(O)C(F)(F)C(F)(F)C(F)(F)C(F)(F)C(F)(F)C(F)(F)C(F)(F)C(F)(F)C(F)(F)C(F)(F)F [Perfluoroundecanoic_acid]" systemundertest=1392 valuemeasured="> 100 µM"
molecule="O=C(O)C(F)(F)OC(F)(F)C(F)(F)OC(F)(F)F [Perfluoro-3,6-dioxaheptanoic_acid]" systemundertest=1392 valuemeasured="> 100 µM"
molecule="O=C(O)C(F)(F)C(F)(F)C(F)F [2,2,3,3,4,4-Hexafluorobutanoic_acid]" systemundertest=1392 valuemeasured="> 100 µM"
molecule="O=C(O)C(F)(F)C(F)(F)C(F)(F)OC(F)(F)F [Perfluoro(4-methoxybutanoic)_acid]" systemundertest=1392 valuemeasured="> 100 µM"
molecule="O=S(=O)(O)C(F)(F)C(F)(F)C(F)(F)C(F)(F)C(F)(F)C(F)(F)F [Perfluorohexanesulfonic_acid]" systemundertest=1392 valuemeasured="> 100 µM"
molecule="COC(=O)C(F)(F)C(F)(F)OC(F)(C(F)(F)F)C(F)(F)OC(F)=C(F)F (stereo not drawn) [Methyl_perfluoro(3-(1-ethenyloxypropan-2-yloxy)propanoate)]" systemundertest=1392 valuemeasured="> 100 µM"
molecule="OCCC(F)(F)C(F)(F)C(F)(F)C(F)(F)C(F)(F)C(F)(F)F [6:2 Fluorotelomer alcohol]" systemundertest=1392 valuemeasured="> 100 µM"
molecule="OCC(F)(F)OC(F)(F)C(F)(F)OC(F)(F)C(F)(F)OC(F)(F)F [Fluorinated_triethylene_glycol_monomethyl_ether]" systemundertest=1392 valuemeasured="> 100 µM"
molecule="NC(O)(C(F)(F)F)C(F)(F)F [2-Aminohexafluoropropan-2-ol]" systemundertest=1392 valuemeasured="> 100 µM"
molecule="O=S(=O)(O)CCC(F)(F)C(F)(F)C(F)(F)C(F)(F)C(F)(F)C(F)(F)C(F)(F)C(F)(F)F [8:2 Fluorotelomer sulfonic acid]" systemundertest=1392 valuemeasured="> 100 µM"
molecule="O=C(O)C=CC(F)(C(F)(F)F)C(F)(F)F [3-(Perfluoroisopropyl)-2-propenoic_acid]" systemundertest=1392 valuemeasured="> 100 µM"
molecule="O=C(O)C(F)(F)C(F)(F)C(F)(F)F [Perfluorobutanoic_acid]" systemundertest=1392 valuemeasured="> 100 µM"
molecule="O=C([O-])C(F)(F)C(F)(F)C(F)(F)C(F)(F)C(F)(F)C(F)(F)C(F)(F)F.[NH4+] [Ammonium_perfluorooctanoate]" systemundertest=1392 valuemeasured="> 100 µM"
molecule="NC(=O)C(F)(F)C(F)(F)C(F)(F)C(F)(F)F [Nonafluoropentanamide]" systemundertest=1392 valuemeasured="> 100 µM"
molecule="O=P(O)(O)CCC(F)(F)C(F)(F)C(F)(F)C(F)(F)C(F)(F)C(F)(F)C(F)(F)C(F)(F)F [((Perfluorooctyl)ethyl)phosphonic_acid]" systemundertest=1392 valuemeasured="> 100 µM"
molecule="O=S(=O)(O)C(F)(F)C(F)(F)C(F)(F)C(F)(F)C(F)(F)C(F)(F)C(F)(F)C(F)(F)F [Perfluorooctanesulfonic_acid]" systemundertest=1392 valuemeasured="> 100 µM"
molecule="O=C(O)C(F)(F)C(F)(F)C(F)(F)C(F)(F)F [Perfluoropentanoic_acid]" systemundertest=1392 valuemeasured="> 100 µM"
molecule="O=C(O)C=C(C(F)(F)F)C(F)(F)F [3,3-Bis(trifluoromethyl)-2-propenoic_acid]" systemundertest=1392 valuemeasured="> 100 µM"
